Tested on: GM3
PROTOCOL: GM3 Elisa assay
Format: cell-based
DETAILS: Table 3 (IC 50 Values); B16-FO cells; read-out: IC50_uM_Mean
pIC50: −log10 of the molar value.
Consider the following compounds; for each one, report its pIC50.

Fill in: pIC50 of COc1ccc(OCCC(=O)N[C@H](CN2CC[C@H](O)C2)[C@H](O)c2ccc(OCCCCF)cc2)cc1 [Compound 502] is ___
≥ 7.00

Fill in: pIC50 of CCCCCCOc1ccc([C@@H](O)[C@@H](CN2CCCC2)NC(=O)CCCOc2ccc(C(C)=O)cc2)cc1 [Compound 727] is ___
≥ 7.00

Fill in: pIC50 of CCCCCCCCCCCCCCCC(=O)N[C@H](CN(C)Cc1ccco1)[C@H](O)c1ccc2c(c1)OCCO2 [Compound 683] is ___
5.00 to 5.52

Fill in: pIC50 of COc1ccc([C@@H](O)[C@@H](CN2CCCC2)NC(=O)Cc2ccc(OC(F)(F)F)cc2)cc1Cl [Compound 710] is ___
≥ 7.00

Fill in: pIC50 of O=C(CCC(=O)N[C@H](CN1CCCC1)[C@H](O)c1ccc2c(c1)OCCO2)NC1CCCCC1 [Compound 689] is ___
5.00 to 5.52

Fill in: pIC50 of COc1ccc(C(=O)CCCCCC(=O)N[C@H](CN2CCCC2)[C@H](O)c2ccc(Cl)s2)cc1 [Compound 358] is ___
≥ 7.00

Fill in: pIC50 of O=C(CCC12CC3CC(CC(C3)C1)C2)N[C@H](CN1CCCC1)[C@H](O)c1ccc2c(c1)OCCO2 [Compound 637] is ___
6.00 to 7.00

====

Tested on: GM3
PROTOCOL: GM3 Elisa assay
Assay type: cell-based
DETAILS: Table 1; B16-FO cells, 2 days incubation; read-out: IC50_uM_Mean
ENDPOINT: IC50

Form field - read-out: IC50; system: GM3; submitted item: O=C(CCC(=O)c1ccc(C(F)(F)F)cc1)N[C@H](CN1CCCC1)[C@H](O)c1ccc2c(c1)OCCO2
≤ 100 nM

====

Tested on: GM3
PROTOCOL: GM3 Elisa assay
Assay type: cell-based
DETAILS: Table 3 (IC 50 Values); B16-FO cells; read-out: IC50_uM_Mean
pIC50: −log10 of the molar value.
Consider the following compounds; for each one, report its pIC50.

Fill in: pIC50 of COc1ccc(C(=O)CCCCCC(=O)N[C@H](CN2CC[C@H](O)C2)[C@H](O)c2ccc3c(c2)OCCO3)cc1 is ___
≥ 7.00

Fill in: pIC50 of O=C(CCCCCn1cccn1)N[C@H](CN1CCCC1)[C@H](O)c1ccc2c(c1)OCCO2 is ___
5.52 to 6.00

Fill in: pIC50 of COC[C@@H]1CCCN1C[C@@H](NC(=O)CCOc1ccc(OC)cc1)[C@@H](O)c1ccc2c(c1)OCCO2 is ___
5.00 to 5.52

Fill in: pIC50 of CCCCCCOc1ccc([C@@H](O)[C@@H](CN2CC[C@@H](F)C2)NC(=O)CCOc2ccc(Cl)cc2)cc1 is ___
≥ 7.00

Fill in: pIC50 of CCCNC[C@@H](NC(=O)CCCCCC(=O)c1ccc(OC)cc1)C(O)c1ccc2c(c1)OCCO2 (stereo partly shown) is ___
6.00 to 7.00

Fill in: pIC50 of COc1ccc(OCCC(=O)N[C@H](CN2CCCC2)[C@H](O)c2ccc(-c3ccccc3)cc2)cc1 is ___
6.00 to 7.00

Fill in: pIC50 of CCCCCCCC(=O)N[C@H](CCN1CCCC1)[C@H](O)c1ccc2c(c1)OCCO2 is ___
5.00 to 5.52
